tested on: Pseudomonas aeruginosa; experiment: Antibiofilm activity against Pseudomonas aeruginosa PA14 assessed as removal of biomass at 20 uM preincubated for 24 hrs measured after 2 hrs by SYTO/propidium iodide double-staining-based confocal laser scanning microscopic analysis relative to control; type: functional
1.0 if Activity is below 50%. 0.0 if not; exact matches included in 0.0.

For this molecule, is Activity lower than 50%? CON1C(C)(C)CC(C(=O)N2CCN(c3cc4c(cc3F)c(=O)c(C(=O)O)cn4C3CC3)CC2)C1(C)C (stereo not given)
1.0

Repeat with CC1(C)CC(C(=O)N2CCN(c3cc4c(cc3F)c(=O)c(C(=O)O)cn4C3CC3)CC2)CC(C)(C)N1[O]
1.0

Repeat with CC1(C)CC(C(=O)N2CCN(c3cc4c(cc3F)c(=O)c(C(=O)O)cn4C3CC3)CC2)C(C)(C)N1[O] (stereo not given)
0.0

Repeat with CON1C(C)(C)CC(C(=O)N2CCN(c3cc4c(cc3F)c(=O)c(C(=O)O)cn4C3CC3)CC2)CC1(C)C
1.0

Repeat with CON1C(C)(C)c2ccc(C(=O)N3CCN(c4cc5c(cc4F)c(=O)c(C(=O)O)cn5C4CC4)CC3)cc2C1(C)C
0.0
